Please go through the items and note down their pIC50.
test system: A549; assay: Antiproliferative activity against human A549 cells incubated for 72 hrs by Sulforhodamine B assay; assay type: functional, cell-based; conditions: A549, 72 h
Answers are plain numbers, as −log10 of the molar value.

CHEM SMILES: C[C@H](CO)[C@H]1OC(=O)C=C2[C@@]13O[C@@H]3[C@H]1OC(=O)[C@@]3(C)[C@@H](O)CC[C@@]2(C)[C@@H]13
MEASURED ON: A549
pIC50: 5.96
--
CHEM SMILES: C[C@H](CO)[C@H]1OC(=O)C=C2[C@@]13O[C@@H]3[C@H]1OC(=O)[C@@]3(C)C[C@@H](O)C[C@@]2(C)[C@@H]13
MEASURED ON: A549
pIC50: 5.85

Kindly consider the entry below.
Let me know recorded pIC50 for "CC(C)[C@H]1OC(=O)C=C2[C@@]13O[C@@H]3[C@H]1OC(=O)[C@@]3(C)C[C@@H](O)C[C@@]2(C)[C@@H]13" , thanks.
6.24

###

system: XF498; test: Cytotoxicity against human XF498 cells by SRB staining assay; assay type: functional, cell-based
Please go through the items and note down their IC50.
Numbers only, in µM.

COMPOUND: CC(=O)O[C@@H]1C[C@H](O)[C@@]23COC(O)[C@]1(C)[C@@H]2C[C@@H](O)[C@@]1(C)[C@@H]2C(=O)C[C@@H](c4ccoc4)[C@]2(C)[C@@H](O)C(=O)[C@@H]13 (stereo partly drawn)
IC50 [µM]: 3.8
--
COMPOUND: CC(=O)OC1C(=O)[C@@H]2[C@@]34COC(O)[C@@](C)([C@H](OC(C)=O)C[C@@H]3O)[C@@H]4C[C@@H](O)[C@@]2(C)[C@@]23O[C@@H]2C[C@@H](c2ccoc2)[C@]13C (stereo partly drawn)
IC50 [µM]: 0.012

Kindly consider the entry below.
Let me know recorded IC50 for CC(=O)O[C@@H]1C[C@H](O)[C@@]23COC(O)[C@]1(C)[C@@H]2C[C@@H](O)[C@]1(C)[C@@H]3C(=O)C(O)[C@@]2(C)[C@H](c3ccoc3)C[C@H]3O[C@@]312 (stereo partly drawn) , thanks.
0.038

###

Please go through the items and note down their IC50.
test system: A2058; test: Cytotoxicity against human A2058 cells incubated for 48 hrs by MTT assay; type: functional, cell-based; details: A2058, 48 h

# return IC50 for each item in the list
1. C=C1CC[C@@H]2[C@](C)(COC(=O)CN(C)c3ccc([N+](=O)[O-])c4nonc34)[C@H](O)CC[C@@]2(C)[C@@H]1C/C=C1/C(=O)OC[C@H]1OC(C)=O
2. C=C1CC[C@@H]2[C@](C)(CO)[C@H](O)CC[C@@]2(C)[C@@H]1C/C=C1/C(=O)OC[C@H]1O [ANDROGRAPHOLIDE]

1. 4.5 µM
2. 26 µM
